Test system: HS 578T breast
Experiment: NCI-60 one-dose screen, 48 h
Conditions: 10 µM unless noted
About 83,000 compounds went through this panel and 20% of them were active in at least one assay; those are over-represented in the sample as a whole. Activity calls are given as the source filed them. How the source made its calls: active means growth percent below 10; inactive means the rest.
Returns: one label drawn from Yes (active), No (inactive)

Recorded call for O=C(Nc1ccc(F)c(Cl)c1)c1n[nH]c(=O)c2ccccc12 ?
No

Recorded call for O=C(c1ccncc1)N1N=C(c2ccc(Cl)cc2)CC1c1c[nH]c2ccccc12 (stereo not drawn) ?
No

Recorded call for FC(F)(F)c1cccc(-n2nnc3cnc(Nc4ccc(N5CCCCC5)cc4)nc32)c1 ?
No

Recorded call for C=C1C(=O)O[C@H]2[C@H]1CC/C(Cn1cc(-c3ccc(N)cc3)nn1)=C\CC[C@@]1(C)O[C@@H]21 ?
No

Recorded call for CC/C=C\C[C@H]1C/C=C2/C(=O)C(Cl)=C[C@@H]2C/C=C\CCCC(=O)O1 ?
No

Recorded call for CN(C)C/C=C/C(=O)Nc1cc2c(Nc3ccc(F)c(Cl)c3F)ncnc2cc1OCCOC(F)F ?
Yes

Recorded call for O=S(=O)(NCCNc1cc(-c2cn(-c3ccccc3)nc2-c2ccccc2)ccn1)c1cccc2ccccc12 ?
No

Recorded call for O=C(Nc1cccc(C(F)(F)F)c1)Nc1ccc(OCc2nnc(-c3ccccc3)o2)c(F)c1 ?
No

Recorded call for CCN1C(=O)N(CC)C2C1NN=c1s/c(=C3\C(=O)N(C4CCCC4)c4ccccc43)c(=O)n12 (stereo not drawn) ?
Yes

Recorded call for COc1ccc(-c2nnc(COc3ccc(NC(=O)Nc4ccc(Cl)c(C(F)(F)F)c4)cc3F)o2)cc1 ?
No

Recorded call for CCCn1c(=S)sc2c(Cl)nc(C)nc21 ?
No

Recorded call for CCC(c1ccc(OC)cc1)C(CC)c1ccc(O)c(CN2CCCC2)c1 (stereo not drawn) ?
No

Recorded call for COc1cc(CCn2nnc3c(NCCCCO)ncnc32)cc(OC)c1 ?
No

====

Test system: HOP-92 NSCLC
Test: NCI-60 one-dose screen, 48 h
Conditions: 10 µM unless noted
Compounds without any hit were thinned out: in the full panel of roughly 83,000, 20% have a hit. Calls of active or inactive are those of the source. The calls were made as follows: active = growth percent below 10; inactive = the rest.
Returns: one label drawn from Y (active), N (inactive)

Recorded call for COc1ccc(/C=C2\Oc3cc(OCCN4CCCC4)ccc3C2=O)c(OC)c1 ?
N

Recorded call for CCCCCCCN(CCCCCCC)C(=N)c1ccc(OC)c2ccccc12 ?
Y

Recorded call for CCN1C(=O)N[C@H]2[C@@H]3NC(=O)c4ccc(Cl)n4[C@@H]3C[C@]21O ?
Y

Recorded call for O=c1oc2cc(OS(=O)(=O)c3ccccc3)c(Cl)cc2c2c1CCCCCC2 ?
N

Recorded call for O=C1NC(Cc2c[nH]c3ccccc23)C(=O)N1Cc1ccc(Cl)cc1 (stereo unspecified) ?
N

Recorded call for COC1=CC(c2ccc[nH]2)=N/C1=C\c1[nH]c(C)c(C(=O)CCCCC(=O)Nc2ccccc2)c1C ?
Y

Recorded call for Nc1cccc2c1CN(C1CCC(=O)NC1=O)C2=O (stereo unspecified) ?
N

Recorded call for Cc1ccc(S(=O)(=O)NCCCNc2nccc(-c3c(-c4ccccc4)nc4sccn34)n2)cc1 ?
N

Recorded call for CCSc1nnc(NC(=O)Cc2ccc(Cl)cc2)s1 ?
N

Recorded call for COc1cccc(-c2nc3sccn3c2-c2ccnc(NCCCNS(=O)(=O)c3ccc(F)cc3)n2)c1 ?
N

Recorded call for COc1cc(NCCN=C(N)NC(N)=NC(C)C)c2ncccc2c1 ?
N

Recorded call for CC(=O)Nc1ccc(S(=O)(=O)NC(CCC(=O)Nc2ccc(Cl)cc2)C(=O)O)cc1 (stereo unspecified) ?
N

Recorded call for O=C1C2=C(C(=O)c3c(O)ccc(O)c31)N(c1cccnc1)Cc1ccccc1O2 ?
Y

Recorded call for CCN1C(=O)N(CC)C2C1NN=c1s/c(=C\c3ccccn3)c(=O)n12 (stereo unspecified) ?
N

Recorded call for Clc1cccc(Cl)c1Cn1c(-c2cncs2)nc2ccccc21 ?
N

Recorded call for COc1ccc(-c2nc3sccn3c2-c2ccnc(NCCCNS(=O)(=O)c3ccc4ccccc4c3)n2)cc1 ?
N

Recorded call for CCC(=O)Oc1ccc2c(c1)CC[C@@H]1[C@@H]2CC[C@]2(C)C[C@H](OC(=O)CC)C[C@@H]12 ?
N

Recorded call for CC(C)C[C@H](NC(=O)Cn1ccc(NCc2ccccc2)cc1=O)B(O)O ?
Y
